All figures here come from a polymer gas permeability compilation.

Recorded O2 permeability, one value per entry.
Give the quantity in Barrer, number only.

*=CC1CCC(C=*)C1 (repeat unit): 2.8
*C(=C(*)c1ccc2c(c1)C(C)(C)CC2(C)C)c1ccc(F)c(F)c1 (repeat unit): 18700
*C(C(=O)OC1CCCCC1)C(*)C(=O)OC(C)(C)C (repeat unit): 17
*Cc1ccc(C*)cc1 (repeat unit): 0.235
*c1ccc(Oc2ccc(C(c3ccc(Oc4ccc(N5C(=O)c6ccc(C(=O)c7ccc8c(c7)C(=O)N(*)C8=O)cc6C5=O)cc4)cc3)(C(F)(F)F)C(F)(F)F)cc2)cc1 (repeat unit): 1.14

In: Request the reported O2 permeability associated with *CC(*)OC1CC2CCC1C2 (repeat unit)
Out: 3.55
